# EC50 per record follows
- MEASURED_ON: Short transient receptor potential channel 4 (Mus musculus)
- Sequence (Q9QUQ5 whole entry): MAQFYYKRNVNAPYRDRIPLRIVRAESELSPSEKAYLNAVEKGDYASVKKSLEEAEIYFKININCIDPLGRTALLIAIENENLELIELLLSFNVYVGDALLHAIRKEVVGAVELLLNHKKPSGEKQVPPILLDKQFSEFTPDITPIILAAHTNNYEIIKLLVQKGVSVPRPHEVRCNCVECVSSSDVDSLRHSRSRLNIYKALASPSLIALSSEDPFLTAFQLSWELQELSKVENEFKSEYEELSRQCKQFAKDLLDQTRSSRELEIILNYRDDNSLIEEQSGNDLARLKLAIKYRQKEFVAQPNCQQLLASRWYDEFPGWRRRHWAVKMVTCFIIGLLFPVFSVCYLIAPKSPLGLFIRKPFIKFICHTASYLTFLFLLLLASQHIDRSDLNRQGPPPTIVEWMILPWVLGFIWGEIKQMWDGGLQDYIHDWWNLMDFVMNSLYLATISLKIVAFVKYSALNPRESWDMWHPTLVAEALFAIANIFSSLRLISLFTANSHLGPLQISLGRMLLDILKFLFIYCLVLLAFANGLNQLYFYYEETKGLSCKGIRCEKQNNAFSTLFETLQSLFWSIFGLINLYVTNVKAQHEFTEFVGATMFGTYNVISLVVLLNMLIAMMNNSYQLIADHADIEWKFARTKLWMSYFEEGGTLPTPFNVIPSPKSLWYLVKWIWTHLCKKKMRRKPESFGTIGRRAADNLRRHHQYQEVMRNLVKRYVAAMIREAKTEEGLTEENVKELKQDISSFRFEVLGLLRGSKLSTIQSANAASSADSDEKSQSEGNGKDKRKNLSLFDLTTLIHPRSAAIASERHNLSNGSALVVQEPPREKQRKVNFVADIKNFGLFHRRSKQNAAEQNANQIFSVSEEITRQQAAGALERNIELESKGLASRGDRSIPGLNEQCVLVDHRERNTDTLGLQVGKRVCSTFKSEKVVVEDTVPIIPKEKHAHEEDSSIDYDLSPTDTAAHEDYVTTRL
- ASSAY_PROTOCOL: block of DAMGO-driven TRPC4 calcium entry – cell-based, HEK293 TRPC4/mu-opioid, Fluo-4 calcium, dose response (AID 434942);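 note: potency of inhibitors blocking the TRPC4 calcium response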
- Format: functional
Active and inactive are the calls of the source.
ATTRIBUTE_MEASURED: EC50

- COMPOUND: "O=C(CN1CCCCC1)N=Nc1c(O)[nH]c2ccccc12"
  MEASURED_ON: "Short transient receptor potential channel 4 (Mus musculus)"
  ATTRIBUTE_MEASURED: "EC50"
  READING: "2990 nM (active)"
- COMPOUND: "COc1cc(CN(C)CC2CCCN(CCc3ccccc3F)C2)cc(Cl)c1OC (stereo not given)"
  MEASURED_ON: "Short transient receptor potential channel 4 (Mus musculus)"
  ATTRIBUTE_MEASURED: "EC50"
  READING: "3350 nM (active)"
- COMPOUND: "CSC1=NC2=C(CCCC2)C2(CCCCC2)N1"
  MEASURED_ON: "Short transient receptor potential channel 4 (Mus musculus)"
  ATTRIBUTE_MEASURED: "EC50"
  READING: "5960 nM (active)"
- COMPOUND: "Cc1ncsc1CCOC(=O)c1cccc([N+](=O)[O-])c1"
  MEASURED_ON: "Short transient receptor potential channel 4 (Mus musculus)"
  ATTRIBUTE_MEASURED: "EC50"
  READING: "1680 nM (active)"
- COMPOUND: "Cc1c(C(=O)N(Cc2cccs2)C2CCS(=O)(=O)C2)oc2ccccc12 (stereo not given)"
  MEASURED_ON: "Short transient receptor potential channel 4 (Mus musculus)"
  ATTRIBUTE_MEASURED: "EC50"
  READING: "1680 nM (active)"

* * *

- MEASURED_ON: Voltage-dependent T-type calcium channel subunit alpha-1H (Homo sapiens)
- Sequence (O95180 whole entry): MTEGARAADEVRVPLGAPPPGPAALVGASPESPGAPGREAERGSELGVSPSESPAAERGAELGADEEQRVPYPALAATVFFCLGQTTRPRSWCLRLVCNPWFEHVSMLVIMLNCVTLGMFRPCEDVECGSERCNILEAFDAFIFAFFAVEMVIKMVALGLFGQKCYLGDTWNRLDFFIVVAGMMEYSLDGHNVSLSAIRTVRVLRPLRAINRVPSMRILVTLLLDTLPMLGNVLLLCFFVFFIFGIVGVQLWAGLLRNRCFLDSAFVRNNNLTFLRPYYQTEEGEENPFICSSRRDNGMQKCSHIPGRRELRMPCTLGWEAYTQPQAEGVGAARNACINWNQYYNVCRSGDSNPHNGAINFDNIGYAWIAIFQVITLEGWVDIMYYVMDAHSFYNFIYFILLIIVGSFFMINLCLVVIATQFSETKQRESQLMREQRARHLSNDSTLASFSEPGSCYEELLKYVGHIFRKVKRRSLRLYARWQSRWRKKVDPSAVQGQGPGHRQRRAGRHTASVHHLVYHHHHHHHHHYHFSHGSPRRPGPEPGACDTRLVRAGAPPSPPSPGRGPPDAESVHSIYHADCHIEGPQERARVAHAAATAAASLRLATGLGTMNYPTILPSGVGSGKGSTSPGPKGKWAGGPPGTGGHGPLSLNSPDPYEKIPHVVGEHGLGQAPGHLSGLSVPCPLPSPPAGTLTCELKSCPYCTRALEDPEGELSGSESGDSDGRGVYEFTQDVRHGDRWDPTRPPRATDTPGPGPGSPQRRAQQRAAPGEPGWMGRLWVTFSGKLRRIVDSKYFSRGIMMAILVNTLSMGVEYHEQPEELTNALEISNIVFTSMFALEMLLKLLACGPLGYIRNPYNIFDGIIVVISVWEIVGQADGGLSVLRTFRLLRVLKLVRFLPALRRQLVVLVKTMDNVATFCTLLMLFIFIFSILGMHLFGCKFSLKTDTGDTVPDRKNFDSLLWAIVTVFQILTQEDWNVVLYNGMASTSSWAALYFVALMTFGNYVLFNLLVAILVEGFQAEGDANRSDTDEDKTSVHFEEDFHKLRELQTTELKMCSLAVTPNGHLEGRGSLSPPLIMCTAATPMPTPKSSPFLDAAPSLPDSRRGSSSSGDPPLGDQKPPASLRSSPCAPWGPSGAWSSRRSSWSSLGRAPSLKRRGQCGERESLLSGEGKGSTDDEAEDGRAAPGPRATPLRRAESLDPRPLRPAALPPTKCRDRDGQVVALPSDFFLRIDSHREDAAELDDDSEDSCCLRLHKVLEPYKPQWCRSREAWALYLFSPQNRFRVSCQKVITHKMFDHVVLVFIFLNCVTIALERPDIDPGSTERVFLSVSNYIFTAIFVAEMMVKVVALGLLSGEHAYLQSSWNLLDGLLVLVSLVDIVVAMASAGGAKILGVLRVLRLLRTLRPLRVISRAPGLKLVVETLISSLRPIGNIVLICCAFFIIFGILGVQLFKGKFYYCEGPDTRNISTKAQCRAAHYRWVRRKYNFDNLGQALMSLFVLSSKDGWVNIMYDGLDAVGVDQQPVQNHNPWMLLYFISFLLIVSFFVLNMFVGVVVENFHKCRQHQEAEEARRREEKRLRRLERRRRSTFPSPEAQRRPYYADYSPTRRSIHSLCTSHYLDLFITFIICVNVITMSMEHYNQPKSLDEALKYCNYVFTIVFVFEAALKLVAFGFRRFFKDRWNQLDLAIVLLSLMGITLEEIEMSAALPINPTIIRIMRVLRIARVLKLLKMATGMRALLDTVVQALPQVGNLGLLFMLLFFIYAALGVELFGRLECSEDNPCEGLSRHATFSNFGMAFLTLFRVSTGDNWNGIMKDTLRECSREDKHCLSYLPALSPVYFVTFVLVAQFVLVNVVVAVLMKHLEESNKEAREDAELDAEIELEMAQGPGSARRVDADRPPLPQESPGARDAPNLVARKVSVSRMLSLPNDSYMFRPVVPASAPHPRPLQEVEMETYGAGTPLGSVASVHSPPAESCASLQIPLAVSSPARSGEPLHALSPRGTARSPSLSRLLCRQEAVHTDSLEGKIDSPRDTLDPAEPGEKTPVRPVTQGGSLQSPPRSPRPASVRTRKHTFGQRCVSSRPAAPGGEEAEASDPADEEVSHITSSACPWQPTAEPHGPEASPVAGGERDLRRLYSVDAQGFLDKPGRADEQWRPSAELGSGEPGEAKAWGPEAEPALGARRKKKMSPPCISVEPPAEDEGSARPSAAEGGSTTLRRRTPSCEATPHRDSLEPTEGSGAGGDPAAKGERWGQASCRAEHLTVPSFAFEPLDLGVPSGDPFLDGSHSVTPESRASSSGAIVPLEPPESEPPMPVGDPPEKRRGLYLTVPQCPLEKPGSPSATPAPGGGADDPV
- Format: functional
Calls of active or inactive are those of the source.

- COMPOUND: "O=C(Nc1cnc2ccccc2c1)C1COc2ccccc2O1 (stereo unspecified)"
  EC50: "2.93 µM (active)"
- COMPOUND: "CC(NC(=O)CCSc1nc(-c2ccc3c(c2)OCO3)cc(C(F)(F)F)n1)c1ccccc1 (stereo unspecified)"
  EC50: "7.03 µM (active)"
- COMPOUND: "Cc1nc2c(-c3ccc(F)cc3)c(C)nn2c(C)c1CCC(=O)N1CCC(Cc2ccccc2)CC1"
  EC50: "6.64 µM (active)"
- COMPOUND: "CCn1c(SCCOc2ccc(Cl)cc2)nnc1-c1cccs1"
  EC50: "5.63 µM (active)"
- COMPOUND: "Cc1ccc(S(=O)(=O)NCC(=O)N(CC(=O)NCc2ccco2)Cc2ccc3c(c2)OCO3)cc1"
  EC50: "3.4 µM (active)"
- COMPOUND: "Cc1onc(-c2ccccc2Cl)c1C(=O)Nc1ccc(F)c(F)c1"
  EC50: "5.58 µM (active)"

* * *

- MEASURED_ON: Rac GTPase-activating protein 1 (Homo sapiens, UniProt Q9H0H5)
- Sequence (Q9H0H5 whole entry): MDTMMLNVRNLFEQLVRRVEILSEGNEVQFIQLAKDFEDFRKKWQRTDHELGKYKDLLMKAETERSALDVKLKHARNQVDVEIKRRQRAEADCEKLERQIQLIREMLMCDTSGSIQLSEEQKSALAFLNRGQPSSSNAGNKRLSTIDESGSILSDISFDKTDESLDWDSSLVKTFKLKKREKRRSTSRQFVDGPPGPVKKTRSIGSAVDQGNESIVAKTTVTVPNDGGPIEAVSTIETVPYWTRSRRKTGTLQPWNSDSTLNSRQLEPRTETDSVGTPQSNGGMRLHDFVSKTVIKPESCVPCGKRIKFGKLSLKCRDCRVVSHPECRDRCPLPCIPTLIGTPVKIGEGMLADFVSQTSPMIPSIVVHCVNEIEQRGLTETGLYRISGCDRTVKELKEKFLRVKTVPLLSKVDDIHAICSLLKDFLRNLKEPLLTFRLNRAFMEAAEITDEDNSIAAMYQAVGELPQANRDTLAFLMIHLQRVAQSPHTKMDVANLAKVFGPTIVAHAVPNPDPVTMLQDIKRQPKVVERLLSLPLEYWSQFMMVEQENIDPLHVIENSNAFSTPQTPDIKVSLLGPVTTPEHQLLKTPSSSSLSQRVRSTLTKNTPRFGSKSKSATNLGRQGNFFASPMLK
- ASSAY_PROTOCOL: blockers of MgcRacGAP-driven Rac1 GTP hydrolysis – biochemical, ADP Hunter fluorescence, primary and confirmatory, confirmation (AID 624330)
- Format: functional
Active and inactive are the calls of the source.
Entries and their IC50 values follow.

- MOLECULE: "COc1ccc(NC2CCCN(C(=O)c3ccccc3N3CCOCC3)C2)cc1OC (stereo unspecified)"
  IC50: "198 µM (active)"
- MOLECULE: "O=C1C=CC2(C=C1)O[C@H](Cc1ccccc1)[C@@H](Cc1ccccc1)O2"
  IC50: "49.6 µM (active)"
- MOLECULE: "CC(C)c1nc(SCC(=O)Nc2ccc(N(C)C)cc2)c2ccccc2n1"
  IC50: "196 µM (active)"
- MOLECULE: "COc1cc(/C=N/n2cnnc2)ccc1OC(=O)c1ccncc1"
  IC50: "31 µM (active)"
- MOLECULE: "Oc1ccc(Cl)cc1/C=N/c1ccc2c3c(cccc13)CC2"
  IC50: "12.9 µM (active)"
- MOLECULE: "Brc1cccc(OCCN2CCOCC2)c1"
  IC50: "134 µM (active)"
- MOLECULE: "COc1cc(/C=N/NC(=O)C2(O)c3ccccc3-c3ccccc32)ccc1O"
  IC50: "47.6 µM (active)"
- MOLECULE: "Oc1c(Br)cc(-c2ccccc2)cc1Br"
  IC50: "85 µM (active)"
- MOLECULE: "COc1ccc2[nH]c3c(=O)n(CCCCC(=O)N4CCC(C(N)=O)CC4)c(=S)[nH]c3c2c1"
  IC50: "55.4 µM (active)"
- MOLECULE: "O=C(C1CCN(Cc2cc(Cl)ccc2O)CC1)N1CCN(Cc2ccccc2)CC1"
  IC50: "81 µM (active)"
- MOLECULE: "CCn1c2ccccc2c2cc(NC(=O)CNC)ccc21"
  IC50: "100 µM (active)"

* * *

- MEASURED_ON: Corticotropin-releasing factor receptor 2/Corticotropin-releasing factor-binding protein (Homo sapiens, UniProt P24387+Q13324)
- Sequence (Q13324 whole entry): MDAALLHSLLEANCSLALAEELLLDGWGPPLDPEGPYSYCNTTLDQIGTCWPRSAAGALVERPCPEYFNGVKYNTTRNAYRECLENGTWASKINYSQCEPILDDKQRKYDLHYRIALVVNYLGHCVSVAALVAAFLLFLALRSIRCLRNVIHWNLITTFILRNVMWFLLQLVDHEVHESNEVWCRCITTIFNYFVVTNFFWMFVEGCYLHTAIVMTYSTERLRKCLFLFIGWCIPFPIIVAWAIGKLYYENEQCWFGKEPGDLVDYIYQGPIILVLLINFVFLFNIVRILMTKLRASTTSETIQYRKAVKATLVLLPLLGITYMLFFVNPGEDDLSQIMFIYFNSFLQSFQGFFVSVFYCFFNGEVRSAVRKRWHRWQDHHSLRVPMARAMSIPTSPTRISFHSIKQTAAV
- Sequence (P24387 whole entry): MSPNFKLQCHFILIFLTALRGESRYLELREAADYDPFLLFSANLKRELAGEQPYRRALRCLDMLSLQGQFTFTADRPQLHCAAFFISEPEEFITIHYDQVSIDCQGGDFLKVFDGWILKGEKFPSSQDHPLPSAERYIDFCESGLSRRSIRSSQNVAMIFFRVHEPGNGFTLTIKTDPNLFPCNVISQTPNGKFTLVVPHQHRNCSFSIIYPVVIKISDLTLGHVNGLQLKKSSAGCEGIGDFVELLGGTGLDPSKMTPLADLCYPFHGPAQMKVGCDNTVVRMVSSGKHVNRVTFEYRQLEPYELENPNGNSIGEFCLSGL
- ASSAY_PROTOCOL: activators of CRF receptor 2 with binding protein – uHTS hits, confirmation (AID 602473)
- Format: functional
- CONDITION_CONTEXT: read-out: EC50_Mean
Calls of active or inactive are those of the source.
Labels: active, inactive

- MOLECULE: "Oc1c(Br)cc(-c2ccccc2)cc1Br"
  ASSIGNED_LABEL: "inactive"
- MOLECULE: "Cc1ccc(CC(=O)NCCCc2ccccc2)cc1"
  ASSIGNED_LABEL: "inactive"
- MOLECULE: "CC1(c2ccc(OC(F)F)cc2)NC(=O)N(CC(=O)Nc2cccnc2Cl)C1=O (stereo unspecified)"
  ASSIGNED_LABEL: "active"
- MOLECULE: "Cc1cc(C(=O)NNC(=O)C(CCC(N)=O)NS(=O)(=O)c2ccc(Cl)cc2)c(C)o1 (stereo unspecified)"
  ASSIGNED_LABEL: "inactive"
- MOLECULE: "CC1=C(C(=O)N(C(C)C)C(C)C)CC(CC(=O)NC2CCCCC2)C(=O)N1Cc1ccccc1 (stereo unspecified)"
  ASSIGNED_LABEL: "inactive"
- MOLECULE: "Cc1nn(-c2ccccc2)c(C)c1/C=N/n1c(S)nnc1-c1ccccc1Br"
  ASSIGNED_LABEL: "inactive"

* * *

- MEASURED_ON: CAAX prenyl protease 2 (Saccharomyces cerevisiae S288c, UniProt Q03530)
- Sequence (Q03530 whole entry): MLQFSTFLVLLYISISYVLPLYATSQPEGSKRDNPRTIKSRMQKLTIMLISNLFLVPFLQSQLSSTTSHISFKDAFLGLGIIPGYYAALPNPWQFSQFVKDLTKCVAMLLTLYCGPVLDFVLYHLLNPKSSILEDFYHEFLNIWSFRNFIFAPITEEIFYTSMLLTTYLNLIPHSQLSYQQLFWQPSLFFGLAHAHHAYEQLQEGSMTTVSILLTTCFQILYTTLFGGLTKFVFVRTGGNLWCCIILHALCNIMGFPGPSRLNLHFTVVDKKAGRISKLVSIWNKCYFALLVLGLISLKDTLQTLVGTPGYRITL
- Assay type: biochemical
The source made the active and inactive calls.
Possible outcomes: active, inactive

- COMPOUND_STRUCTURE_STRING: "Cc1cccc(-c2oc3ccccc3c2C#CCCCCO)c1"
  MEASURED_ON: "CAAX prenyl protease 2 (Saccharomyces cerevisiae S288c, UniProt Q03530)"
  ASSIGNED_LABEL: "active"
- COMPOUND_STRUCTURE_STRING: "Cc1cc(OCC(=O)N2CCC(C(=O)O)CC2)c2c(C)cc(=O)oc2c1"
  MEASURED_ON: "CAAX prenyl protease 2 (Saccharomyces cerevisiae S288c, UniProt Q03530)"
  ASSIGNED_LABEL: "active"
- COMPOUND_STRUCTURE_STRING: "CC(C)c1cc(=O)oc2c3c4c(cc12)CCCN4CCC3"
  MEASURED_ON: "CAAX prenyl protease 2 (Saccharomyces cerevisiae S288c, UniProt Q03530)"
  ASSIGNED_LABEL: "inactive"
- COMPOUND_STRUCTURE_STRING: "CCOc1ccc(S(=O)(=O)Nc2cc(OC)c(OC)cc2C(=O)O)cc1"
  MEASURED_ON: "CAAX prenyl protease 2 (Saccharomyces cerevisiae S288c, UniProt Q03530)"
  ASSIGNED_LABEL: "active"
